The molecules listed here are annotated with their AC50.
- assay.text: non-covalent RecA intein splicing inhibitors, dose response, biochemical, cell-free, fluorescence, secondary screen (AID 449750)
Active and inactive are the calls of the source. No rule for the calls is given here.
quantity.measured: AC50

# molecule, observed.measurement
data = [
    ("Cn1c(O)c(C2=NN(C(=O)CCl)C(c3ccccc3)C2)c(=O)n(C)c1=O (stereo not drawn)", "26.2 µM"),
    ("COc1cc(/C=C/c2cc[n+](C)cc2)ccc1OCC(=O)Nc1ccc(Cl)c(Cl)c1", "> 38 µM (inactive)"),
    ("O=C(NC1(O)C(=O)c2ccccc2C1=O)c1ccccc1", "9.46 µM"),
    ("CSc1nnc(NC(=O)c2nc(S(=O)(=O)Cc3cccc(C)c3)ncc2Cl)s1", "> 38 µM (inactive)"),
    ("N#C/C(=C\\c1ccc(O)c([N+](=O)[O-])c1)c1nc2ccccc2s1", "33.8 µM"),
    ("CC(=O)N(C1CC(C)C(C#N)(C#N)C1(C#N)C#N)N(C)C (stereo not drawn)", "> 38 µM (inactive)"),
    ("Cc1ccc(-n2nc(C)c3c2OC(N)=C(C#N)C3c2ccco2)cc1 (stereo not drawn)", "12.9 µM"),
    ("O=C(CCl)Nc1cn(-c2ccccc2)nc1-c1ccc(F)cc1", "2.82 µM"),
    ("O=C(O)CC1OCC=C2CN3CCC45C6=CC(=O)C(=O)C([N+](=O)[O-])=C6NC4C1C2CC35 (stereo not drawn)", "32.5 µM"),
    ("CC1=NNC(=O)C1C(c1cccc(O)c1)C(C#N)C#N (stereo not drawn)", "> 38 µM (inactive)"),
    ("O=C1C(Cl)=C(NCC2CCCO2)C(=O)N1c1ccccc1 (stereo not drawn)", "> 38 µM (inactive)"),
    ("CC1(N2CCOCC2)CC2(O)C(=[N+]1[O-])CCc1nonc12 (stereo not drawn)", "36.5 µM"),
    ("Nc1cc2nn(-c3ccccc3)nc2cc1Cl", "7.05 µM"),
]

* * *

- assay.text: non-covalent RecA intein splicing inhibitors, dose response, biochemical, cell-free, fluorescence, secondary screen (AID 449750)
Active and inactive are the calls of the source. The rule behind the calls is not given here.
Possible outcomes: yes = active, no = inactive

# compound, group.label
data = [
    ("COc1ccc(/C=C2/SC(=S)N(CCCC(=O)Nc3cccc(O)c3)C2=O)cc1", "no"),
    ("COc1ccc(CNC(=O)c2c(C)oc3c2C(=O)c2ccccc2C3=O)cc1", "yes"),
    ("O=C1C(Nc2ccccc2)=C(N2CCCCC2)C(=O)c2ccccc21", "yes"),
    ("COC(=O)c1ccccc1S(=O)(=O)N1CCC(NC(=O)c2ccccc2)CC1", "no"),
    ("CCOC(=O)Cc1[nH]nc2c1C(c1cccc(OC)c1OC)C(C#N)=C(N)O2 (stereo unspecified)", "yes"),
    ("Oc1[nH]c2ccc(Br)cc2c1N=NC(=S)N1CCOCC1", "no"),
]

* * *

- assay.text: non-covalent RecA intein splicing inhibitors, dose response, biochemical, cell-free, fluorescence, secondary screen (AID 449750)
The source made the active and inactive calls. The rule behind the calls is not given here.
Possible outcomes: active, inactive

# compound, group.label
rows = [
    ("Cc1cc(C(=O)c2ccc(Cl)cc2)c(NC(=O)CCl)s1", "active"),
    ("O=C(c1cc(F)c(F)cc1Cl)N1CCN(c2ccc([N+](=O)[O-])c3ncccc23)CC1", "inactive"),
    ("COC(=O)c1ccc(NC2=C(Cl)C(=O)OC2OC(=O)c2ccccc2)cc1 (stereo not given)", "inactive"),
    ("Cc1nnc(N/N=C/c2cccc(OCc3ccc(Cl)c(Cl)c3)c2)n1N", "active"),
    ("N#C/C(=C\\c1cc(Cl)c(OCc2ccc(Cl)cc2)c(Cl)c1)C(N)=O", "active"),
]
